TARGET_OF_ASSAY: Sigma 2 receptor
ASSAY_TEXT: Evaluated for the binding affinity towards sigma 2 receptor by displacing the radioligand [3H]DTG in guinea-pig brain cortex.
pIC50: −log10 of the molar value.
pIC50 reference

{"COMPOUND": "CC1(C)CCCN(CCCCCc2ccccc2)C1", "pIC50": 8.00}
{"COMPOUND": "COc1ccc2c(c1)C(CCCN1CCCC(C)(C)C1)CCC2 (stereo not drawn)", "pIC50": 6.96}
{"COMPOUND": "COc1cccc2c1CCCC2CCCN1CCCC(C)(C)C1 (racemic)", "pIC50": 6.86}
{"COMPOUND": "COc1cccc2c1CCCC2CCCCN1CCCC(C)(C)C1 (stereo not drawn)", "pIC50": 6.89}
{"COMPOUND": "COc1ccc2c(c1)CCCC2CCCCCN1CCCC(C)(C)C1 (stereo not drawn)", "pIC50": 10.52}
{"COMPOUND": "CC1(C)CCCN(CCCC2CCCc3ccccc32)C1 (stereo not drawn)", "pIC50": 6.87}
{"COMPOUND": "COc1cccc2c1CCCC2CCCN1CCCC(C)(C)C1 (single isomer, unassigned; (+))", "pIC50": 6.92}
{"COMPOUND": "COc1cccc2c1CCC2CCCCN1CCCC(C)(C)C1 (stereo not drawn)", "pIC50": 8.34}
